// data source = ChEMBL document CHEMBL1128879

Species on record: Mus musculus
Test: In vitro ability to inhibit mouse allogenic mixed leukocyte response (MLR)
Assay type: functional
pIC50: −log10 of the molar value.
reported.property: pIC50

CCCCCCc1ccc(CCCCC(N)(CO)CO)cc1 : 7.72
CCCCc1ccc(CCCCCCC(N)(CO)CO)cc1 : 7.00
NC(CO)(CO)CCCCCCCCCCc1ccccc1 : 7.27
CCc1ccc(CCCCCCCCC(N)(CO)CO)cc1 : 7.49
CCCCCCCCCc1ccc(CC(N)(CO)CO)cc1 : 7.15
CCCCCCCCCCc1ccc(C(N)(CO)CO)cc1 : 7.89
CCCCCCCc1ccc(CCCC(N)(CO)CO)cc1 : 6.46
CCCCCCCCCc1ccc(CCC(N)(CO)CO)cc1 : 8.07
